# assayed_target: T1, LTKTG-EGFL (human LTK amino acids 63-420) (human, UniProt P29376 63-420)
# T1 construct: Fc-His6 tag removed by caspase 3; also called LTK (in BLI, SEC-MALLS and ITC)
# T1 sequence: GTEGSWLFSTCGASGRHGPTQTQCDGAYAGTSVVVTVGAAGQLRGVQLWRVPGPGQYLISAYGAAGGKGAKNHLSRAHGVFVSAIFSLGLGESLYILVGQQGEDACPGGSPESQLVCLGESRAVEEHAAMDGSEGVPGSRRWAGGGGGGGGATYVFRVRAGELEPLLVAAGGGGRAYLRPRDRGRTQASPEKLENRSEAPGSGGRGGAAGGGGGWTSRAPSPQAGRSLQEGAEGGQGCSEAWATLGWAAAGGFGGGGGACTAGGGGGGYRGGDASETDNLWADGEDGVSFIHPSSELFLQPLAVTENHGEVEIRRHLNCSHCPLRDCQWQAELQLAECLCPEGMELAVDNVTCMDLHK
# measurement_description: BLI, biotinylated ALKAL2 R136E on streptavidin biosensors, LTKTG-EGFL in solution, dilution series 6.4 µM-400 nM
property_name: Kd
Dear colleague, please send the value followed by its unit.

Kd in this record for ALKAL2^R136E (residues 78-152) (ligand, human, UniProt Q6UX46 78-152, looked up, range 78-152; also called ALKAL2 site 1 mutant R136E) PSPEQRVEIVPRDLRMKDKFLKHLTGPLYFSPKCSKHFHRLYHNTRDCTIPAYYKRCAELLTRLAVSPVCMEDKQ : 5.9 µM
